B1: HDV Ribozyme (parent)
chain: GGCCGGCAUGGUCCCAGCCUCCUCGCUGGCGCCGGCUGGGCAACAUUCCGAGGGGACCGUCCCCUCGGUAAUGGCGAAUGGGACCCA

Variants of: B1
Assay Procedure: self-cleavage, relative activity (ratio to wild type); higher = more cleavage; co-transcriptional
Where self-cleavage equals or exceeds 0.4, the correct label is Criterion met; where it does not, the label is Criterion not met.

// query Entry C33A C48G : is its self-cleavage no less than 0.4?
// result Criterion not met

// query Entry G59A U65A : is its self-cleavage no less than 0.4?
// result Criterion met

// query Entry A8G U60G : is its self-cleavage no less than 0.4?
// result Criterion met

// query Entry G54C U69G : is its self-cleavage no less than 0.4?
// result Criterion met

// query Entry G6U G82U : is its self-cleavage no less than 0.4?
// result Criterion not met

// query Entry C15U A77C : is its self-cleavage no less than 0.4?
// result Criterion not met

// query Entry G52A G81C : is its self-cleavage no less than 0.4?
// result Criterion not met

// query Entry C14U G34A : is its self-cleavage no less than 0.4?
// result Criterion not met

// query Entry C13U G53A : is its self-cleavage no less than 0.4?
// result Criterion met

// query Entry G25U G59A : is its self-cleavage no less than 0.4?
// result Criterion not met

// query Entry G17U U47A : is its self-cleavage no less than 0.4?
// result Criterion not met

// query Entry C24U C64G : is its self-cleavage no less than 0.4?
// result Criterion met

// query Entry C24U A43G : is its self-cleavage no less than 0.4?
// result Criterion not met

// query Entry C18A C22A : is its self-cleavage no less than 0.4?
// result Criterion not met

// query Entry G35U G68U : is its self-cleavage no less than 0.4?
// result Criterion not met

// query Entry G35A A42U : is its self-cleavage no less than 0.4?
// result Criterion not met

// query Entry C63U G67C : is its self-cleavage no less than 0.4?
// result Criterion met

// query Entry C32G C63G : is its self-cleavage no less than 0.4?
// result Criterion not met

// query Entry C30A G82C : is its self-cleavage no less than 0.4?
// result Criterion not met

// query Entry G28C A77C : is its self-cleavage no less than 0.4?
// result Criterion not met

// query Entry G52C G68C : is its self-cleavage no less than 0.4?
// result Criterion not met

// query Entry C49U G74A : is its self-cleavage no less than 0.4?
// result Criterion met

// query Entry C22A G53U : is its self-cleavage no less than 0.4?
// result Criterion not met

// query Entry C48G A87G : is its self-cleavage no less than 0.4?
// result Criterion met

// query Entry C64U U79G : is its self-cleavage no less than 0.4?
// result Criterion met

// query Entry G31C C63A : is its self-cleavage no less than 0.4?
// result Criterion not met

// query Entry G38C C61A : is its self-cleavage no less than 0.4?
// result Criterion not met

// query Entry G2A C48U : is its self-cleavage no less than 0.4?
// result Criterion not met

// query Entry G6C A51C : is its self-cleavage no less than 0.4?
// result Criterion not met

// query Entry G39C A70C : is its self-cleavage no less than 0.4?
// result Criterion not met

// query Entry G1U C66A : is its self-cleavage no less than 0.4?
// result Criterion met

// query Entry C41U C64U : is its self-cleavage no less than 0.4?
// result Criterion met

// query Entry C14U G39U : is its self-cleavage no less than 0.4?
// result Criterion met

// query Entry C7U C85A : is its self-cleavage no less than 0.4?
// result Criterion met

// query Entry U47C G74C : is its self-cleavage no less than 0.4?
// result Criterion not met

// query Entry G5A G25C : is its self-cleavage no less than 0.4?
// result Criterion not met

// query Entry C33G G54A : is its self-cleavage no less than 0.4?
// result Criterion not met

// query Entry G35C C49A : is its self-cleavage no less than 0.4?
// result Criterion not met

// query Entry A8C C48U : is its self-cleavage no less than 0.4?
// result Criterion met

// query Entry C21A G81A : is its self-cleavage no less than 0.4?
// result Criterion not met

// query Entry C26U C85U : is its self-cleavage no less than 0.4?
// result Criterion met

// query Entry C36A G39A : is its self-cleavage no less than 0.4?
// result Criterion not met

// query Entry G10C G67C : is its self-cleavage no less than 0.4?
// result Criterion met

// query Entry C14G C66U : is its self-cleavage no less than 0.4?
// result Criterion met

// query Entry G50U C85A : is its self-cleavage no less than 0.4?
// result Criterion met

// query Entry C61A C62U : is its self-cleavage no less than 0.4?
// result Criterion met
